# TARGET: human 20S proteasome β5 (Homo sapiens, UniProt P28074)
# Construct: purchased Boston Biochem
# METHOD: 20S Proteasome Assay, β5 selective substrate (Ac-WLA-AMC)
# Format: biochemical
# CONDITION: concentration 0.41 μM; typically tested as mannitol esters
MEASURED PROPERTY: inhibition at 0.41 µM

# SAMPLE SMILES, RESULT
measured = [
    ("O=C1COc2cc(S(=O)(=O)N[C@@H](Cc3ccccc3)C(=O)N[C@@H](CC3CC3)B(O)O)c(Cl)cc2N1", "90.3%"),
    ("O=C(N[C@@H](CC1CC1)B(O)O)[C@H](Cc1ccccc1)NS(=O)(=O)c1cccc(Oc2ccc(C(F)(F)F)cn2)c1", "93%"),
    ("O=C(N[C@@H](Cc1ccccc1)C(=O)N[C@@H](CC1CC1)B(O)O)c1cnccn1", "81.9%"),
    ("O=C(N[C@@H](CC1CC1)B(O)O)[C@H](Cc1ccccc1)NS(=O)(=O)c1cccc2cnccc12", "89.7%"),
    ("O=C(N[C@@H](CC1CC1)B(O)O)[C@H](Cc1ccccc1)NS(=O)(=O)c1ccc(Oc2cccnc2)cc1", "89%"),
    ("O=C(c1cccc(S(=O)(=O)N[C@@H](Cc2ccccc2)C(=O)N[C@@H](CC2CC2)B(O)O)c1)c1ccccn1", "90.8%"),
    ("O=C(N[C@@H](CC1CC1)B(O)O)[C@H](Cc1ccccc1)NS(=O)(=O)c1ccc(-c2cnco2)cc1", "92.9%"),
]

* * *

# TARGET: human 20S proteasome β1 (Homo sapiens)
# Construct: purchased Boston Biochem
# METHOD: 20S Proteasome Assay, β1 selective substrate (Z-LLE-AMC)
# Format: biochemical
# CONDITION: concentration 0.41 μM; typically tested as mannitol esters

# SAMPLE SMILES, inhibition at 0.41 µM (%)
measured = [
    ("O=C(N[C@@H](CC1CC1)B(O)O)[C@H](Cc1ccccc1)NS(=O)(=O)c1ccc(Oc2ccccn2)cc1", 67.2),
    ("O=C(c1cccc(S(=O)(=O)N[C@@H](Cc2ccccc2)C(=O)N[C@@H](CC2CC2)B(O)O)c1)c1ccccn1", 82.7),
    ("O=C(N[C@@H](CC1CC1)B(O)O)[C@H](Cc1ccccc1)NS(=O)(=O)c1cccc2cnccc12", 71.9),
    ("O=C(N[C@@H](CC1CC1)B(O)O)[C@H](Cc1ccccc1)NS(=O)(=O)c1ccc(-c2cnco2)cc1", 65.4),
    ("O=C(N[C@@H](CC1CC1)B(O)O)[C@H](Cc1ccccc1)NS(=O)(=O)c1ccc2ncsc2c1", 73.2),
    ("O=C(N[C@@H](CC1CC1)B(O)O)[C@H](Cc1ccccc1)NS(=O)(=O)c1cccc(Oc2ccc(C(F)(F)F)cn2)c1", 81.3),
    ("O=C(N[C@@H](CC1CC1)B(O)O)[C@H](Cc1ccccc1)NS(=O)(=O)c1ccc(Oc2ccncc2)cc1", 75.7),
    ("O=C1COc2cc(S(=O)(=O)N[C@@H](Cc3ccccc3)C(=O)N[C@@H](CC3CC3)B(O)O)c(Cl)cc2N1", 77.1),
    ("O=C(N[C@@H](CC1CC1)B(O)O)[C@H](Cc1ccccc1)NS(=O)(=O)c1ccc(Oc2cccnc2)cc1", 70.7),
    ("CN1C(=O)Cc2cc(S(=O)(=O)N[C@@H](Cc3ccccc3)C(=O)N[C@@H](CC3CC3)B(O)O)ccc21", 66.7),
]

* * *

In this section we review reported inhibition at 0.41 µM values for a set of compounds.
# TARGET: human 20S proteasome β5 (Homo sapiens)
# Construct: purchased Boston Biochem
# METHOD: 20S Proteasome Assay, β5 selective substrate (Ac-WLA-AMC)
# Type: biochemical
# CONDITION: concentration 0.41 μM; typically tested as mannitol esters
MEASURED PROPERTY: inhibition at 0.41 µM (%)

# COMPOUND, NUMBER
measured = [
    ("O=C(N[C@@H](CC1CC1)B(O)O)[C@H](Cc1ccccc1)NS(=O)(=O)c1ccc(Oc2ccncc2)cc1 [Compound 14]", 93.1),
    ("O=C(N[C@@H](CC1CC1)B(O)O)[C@H](Cc1ccccc1)NS(=O)(=O)c1ccc2ncsc2c1 [Compound 4]", 89.8),
    ("CN1C(=O)Cc2cc(S(=O)(=O)N[C@@H](Cc3ccccc3)C(=O)N[C@@H](CC3CC3)B(O)O)ccc21 [Compound 13]", 83.7),
    ("O=C(N[C@@H](Cc1ccccc1)C(=O)N[C@@H](CC1CC1)B(O)O)c1cc(Cl)ccc1Cl [Compound 9]", 93.3),
    ("O=C(N[C@@H](CC1CC1)B(O)O)[C@H](Cc1ccccc1)NS(=O)(=O)c1ccc(Oc2ccccn2)cc1 [Compound 1]", 91.8),
]

Every entry's value here was drawn from patent US9023832B2.
